Hello, the source for this data is patent US8513270B2, in case you need it.

The following molecules each carry a recorded IC50 for human JAK2 (a.a. 828-1132) (Homo sapiens, UniProt O60674).

MOLECULE	IC50
Cc1ncc(NC(=O)c2cc(NCCCN(C)C)cc(C(F)(F)F)c2)cc1-c1ccc2c(c1)[nH]c1ncncc12 [Example 77, tris(trifluoroacetate)]	≤ 500 nM
Cc1ncc(NC(=O)c2cc(-n3cnc(C=O)c3)cc(C(F)(F)F)c2)cc1-c1ccc2c(c1)[nH]c1ncncc12 [Example 74, bis(trifluoroacetate)]	≤ 500 nM
Cc1ccc(NC(=O)c2cc(C(F)(F)F)cc(Cl)c2F)cc1-c1ccc2c(c1)[nH]c1ncncc12	≤ 500 nM
Cc1ccc(NC(=O)c2cc(C(F)(F)F)ccn2)cc1-c1ccc2c(c1)[nH]c1ncncc12	≤ 500 nM
Cc1ccc(NC(=O)c2cc(NCCN(C)C)cc(C(F)(F)F)c2)cc1-c1ccc2c(c1)[nH]c1ncncc12	≤ 500 nM

Give me IC50 for each of these molecules, listed below.
1. Cc1ccc(NC(=O)c2cc(-n3ccnc3)cc(C(F)(F)F)c2)cc1-c1ccc2c(c1)[nH]c1ncncc12
2. COc1ccc(C(=O)Nc2cccc(C(F)(F)F)c2)cc1-c1ccc2c(c1)[nH]c1ncncc12
3. Cc1ccc(C(=O)N[C@H](C)c2ccccc2)cc1-c1ccc2c(c1)[nH]c1ncncc12

["≤ 500 nM", "≤ 500 nM", "> 1000 nM"]

Hey, quick one: what's IC50 for each of these?
1. Cc1ccc(NC(=O)c2ccccc2C(F)(F)F)cc1-c1ccc2c(c1)[nH]c1ncncc12
2. Cc1ccc(NC(=O)c2cccc(C(F)(F)F)c2)cc1-c1ccc2[nH]c3ncncc3c2c1
3. Cc1ncc(NC(=O)c2cc(-n3cncn3)cc(C(F)(F)F)c2)cc1-c1ccc2c(c1)[nH]c1ncncc12 [Example 73, bis(trifluoroacetate)]
4. Cc1ccc(NC(=O)c2cccc(C(F)(F)F)c2F)cc1-c1ccc2c(c1)[nH]c1ncncc12
5. Cc1ccc(NC(=O)c2cc(C(F)(F)F)ccc2C(F)(F)F)cc1-c1ccc2[nH]c3ncncc3c2c1
6. Cc1ccc(NC(=O)c2cc(-n3cncn3)cc(C(F)(F)F)c2)cc1-c1ccc2c(c1)[nH]c1ncncc12

1. > 1000 nM
2. ≤ 500 nM
3. ≤ 500 nM
4. ≤ 500 nM
5. > 1000 nM
6. ≤ 500 nM

Endpoint output: IC50 of Cc1ccc(C(=O)NCc2cc(F)ccc2F)cc1-c1ccc2c(c1)[nH]c1ncncc12 . Value?
> 1000 nM
